Test system: M. hapla eggs
Assay Explanation: Meloidogyne hapla in vitro egg hatch assay
Type: in vivo
Test Parameters: 45 μM, 8 days; z-score vs 8 untreated DMSO wells
Method: The M. hapla were originally obtained from a soil sample of muck soil from Ste-Clotilde, Quebec, Canada. Using tweezers, egg masses were carefully removed from root material from infested carrot roots. […] After the 8-day incubation, the number of hatched eggs was counted for each treatment and for the untreated controls. […] The z-score for each treatment was calculated using the mean and standard deviation of the untreated DMSO control wells.
Assay Endpoint: Number of Hatched Eggs z-score

Example results:
Lookup: Could you share which Number of Hatched Eggs z-score value was measured for Clc1ccc(-c2cn3ccsc3n2)cc1Cl ?
Found: [4.30]

Lookup: Also Cc1csc2nc(-c3ccc(Cl)s3)cn12 ?
Found: [3.31]

Lookup: Also c1ccc(-c2nc3sccn3n2)cc1 ?
Found: [3.97]

Lookup: Also FC(F)(F)Oc1ccc(-c2cn3ccsc3n2)cc1 ?
Found: [4.30]

Lookup: Also Cc1ccc(-c2cn3c(C)csc3n2)cc1 ?
Found: [3.31]

Continuing:
Lookup: Could you share which Number of Hatched Eggs z-score value was measured for O=C(O)c1cn2cc(-c3ccccc3)nc2s1 ?
Found: [3.31]

Lookup: Also CCOc1ccc(-c2cn3ccsc3n2)cc1 ?
Found: [3.97]

Lookup: Also FC(F)(F)c1ccc(-c2cn3ccsc3n2)cc1 ?
Found: [3.31]

Lookup: Also Clc1ccc(-c2cn3c(n2)SCC3)cc1 ?
Found: [3.97]

Lookup: Also CCc1ccc(-c2cn3ccsc3n2)cc1 ?
Found: [4.30]

----------
Below is a list of entries, each paired with its recorded pest or weed control at 45 µM value.
Test system: M. chitwoodi J2 larvae
Assay Explanation: Meloidogyne chitwoodi in vitro larval mobility assay
Format: in vivo
Test Parameters: Meloidogyne chitwoodi, 48 h, 2 days, average of three replicates, read-out: % Immobile
Hi! Could you send only the number? It should be in %, unit omitted.

Example results:
Lookup: Form entry - test system: M. chitwoodi J2 larvae; read-out: pest or weed control at 45 µM; compound: Clc1ccc(-c2cn3ccoc3n2)cc1 [I-47, 6-(4-chlorophenyl)imidazo[2,1-b]oxazole]
Found: 62.7

Lookup: Also Cc1c(-c2ccccc2)nc2sccn12 ?
Found: 48.2

Lookup: Also Clc1ccc(-c2cn3ccsc3n2)nc1 ?
Found: 56.4

Lookup: Also Cc1c(-c2ccc(Br)cc2)nc2sccn12 ?
Found: 58.1

Continuing:
Lookup: Form entry - test system: M. chitwoodi J2 larvae; read-out: pest or weed control at 45 µM; compound: Cc1c(-c2ccc(F)cc2)nc2sccn12
Found: 32.4

Lookup: Also O=C(NCCc1ncc(C(F)(F)F)cc1Cl)c1ccccc1C(F)(F)F [Fluopyram, fluopyram, reference compound] ?
Found: 100

Lookup: Also c1cncc(-c2cn3ccsc3n2)c1 ?
Found: 13.8

----------
Test system: C. elegans
Assay Explanation: C. elegans dose-response (viability, minimum lethal concentration)
Format: in vivo, Caenorhabditis elegans
Test Parameters: Caenorhabditis elegans, 72 h; L1 worms, 3 days at 20° C.; lowest concentration at which at least 20% of worms die; read-out: Minimum Lethal Concentration
Below is a list of entries, each paired with its recorded minimal effective concentration value.
Hi! Could you send only the number? It should be in µM, unit omitted.

Lookup: Could you share which minimal effective concentration value was measured for Cc1ccc(-c2cn3cc(C)sc3n2)cc1 ?
Found: 25

Lookup: Also CCc1ccc(-c2cn3c(C)csc3n2)cc1 ?
Found: 100

Lookup: Also Cc1c(-c2ccc(Cl)cc2)nc2sccn12 ?
Found: 12.5

Lookup: Also Clc1ccc(-c2cn3ccsc3n2)nc1 ?
Found: 100

Lookup: Also CCc1ccc(-c2cn3cc(C)sc3n2)cc1 ?
Found: 6.25

----------
Tested on: M. incognita J2 larvae
Assay Explanation: Meloidogyne incognita in vitro larval mobility assay
Format: in vivo
Test Parameters: Meloidogyne incognita, 96 h, 45 μM, 4 days, replicate 2; read-out: Replicate 2 % Immobile
Below is a list of entries, each paired with its recorded pest or weed control at 45 µM value.
Hi! Could you send only the number? It should be in %, unit omitted.

Example results:
Lookup: Could you share which pest or weed control at 45 µM value was measured for Cc1c(-c2ccc(Cl)cc2)nc2sccn12 [I-22] ?
Found: 33.3

Lookup: Also FC(F)Oc1ccc(-c2cn3ccsc3n2)cc1 [I-63] ?
Found: 100

Lookup: Also Cc1ccc(-c2nc3sccn3c2C=O)cc1 [I-152] ?
Found: 91.3

Lookup: Also Cc1ccc(-c2cn3ccsc3n2)cc1 [I-2] ?
Found: 43.1

Lookup: Also Cc1ccc(-c2cn3ccsc3n2)cc1C [I-6] ?
Found: 27.6

Lookup: Also Cc1ccc(-c2nc3sccn3c2C)cc1 [I-3] ?
Found: 25

Lookup: Also Cc1nn2cc(-c3ccc(Cl)cc3)nc2s1 [I-158] ?
Found: 56.8

Lookup: Also O=Cc1c(-c2ccc(Cl)cc2)nc2sccn12 [I-93] ?
Found: 76.9

Continuing:
Lookup: Could you share which pest or weed control at 45 µM value was measured for Cc1c(-c2ccc(F)cc2)nc2sccn12 [I-13] ?
Found: 21.6

Lookup: Also Fc1ccc(-c2cn3nc(Br)sc3n2)cc1 [I-113] ?
Found: 94.4

----------
Test system: C. elegans
Assay Explanation: C. elegans dose-response (viability, minimum lethal concentration)
Type: in vivo, Caenorhabditis elegans
Test Parameters: Caenorhabditis elegans, 72 h; L1 worms, 3 days at 20° C.; lowest concentration at which at least 20% of worms die; read-out: Minimum Lethal Concentration
Assay Endpoint: minimal effective concentration

Lookup: Could you share which minimal effective concentration value was measured for CCc1ccc(-c2nc3sccn3c2C)cc1 [I-8] ?
Found: 50 µM

Lookup: Also Clc1ccc(-c2cn3ccsc3n2)cc1Cl [I-31] ?
Found: 6.25 µM

Lookup: Also Cc1cn2cc(-c3cccc(Br)c3)nc2s1 [I-37] ?
Found: > 100 µM

Lookup: Also Cc1cn2cc(-c3cccc(F)c3)nc2s1 [I-17] ?
Found: 100 µM

Lookup: Also CCc1ccc(-c2cn3ccsc3n2)cc1 [I-7] ?
Found: 50 µM

Lookup: Also Cc1csc2nc(-c3ccccc3F)cn12 [I-20] ?
Found: > 100 µM

Lookup: Also Cc1ccc(-c2cn3ccsc3n2)cc1 [I-2] ?
Found: 50 µM

Lookup: Also Cc1c(-c2ccc(Br)cc2)nc2sccn12 [I-33] ?
Found: 12.5 µM

Lookup: Also Cc1c(-c2ccccc2Br)nc2sccn12 [I-39] ?
Found: > 100 µM

Lookup: Also Clc1ccccc1-c1cn2ccsc2n1 [I-27] ?
Found: 100 µM

Lookup: Also Brc1ccccc1-c1cn2ccsc2n1 [I-38] ?
Found: 100 µM

Lookup: Also Cc1csc2nc(-c3cccc(Br)c3)cn12 [I-36] ?
Found: > 100 µM

Lookup: Also Cc1c(-c2cccc(Br)c2)nc2sccn12 [I-35] ?
Found: > 50 µM

----------
System: C. elegans
Assay Explanation: C. elegans dose-response (viability, minimum lethal concentration)
Assay type: in vivo, Caenorhabditis elegans
Test Parameters: Caenorhabditis elegans, 72 h; L1 worms, 3 days at 20° C.; same values in ppm; read-out: Minimum Lethal Concentration (ppm)
Below is a list of entries, each paired with its recorded minimal effective concentration value.

Example results:
Lookup: Could you share which minimal effective concentration value was measured for Cc1csc2nc(-c3cccc(Cl)c3)cn12 ?
Found: > 24.9 µg/mL

Lookup: Also Nc1ccc(-c2cn3ccsc3n2)cc1 ?
Found: > 21.5 µg/mL

Lookup: Also CCc1ccc(-c2cn3ccsc3n2)cc1 ?
Found: 11.4 µg/mL

Continuing:
Lookup: Could you share which minimal effective concentration value was measured for Cc1ccc(-c2cn3cc(C)sc3n2)cc1 ?
Found: 5.7 µg/mL

Lookup: Also Cc1cn2cc(-c3cccc(F)c3)nc2s1 ?
Found: 23.2 µg/mL

Lookup: Also Cc1csc2nc(-c3ccccc3Cl)cn12 ?
Found: 24.9 µg/mL

Lookup: Also Cc1ccc(-c2cn3ccsc3n2)cc1C ?
Found: > 22.8 µg/mL

Lookup: Also Clc1ccc(-c2cn3ccsc3n2)c(Cl)c1 ?
Found: 1.7 µg/mL

Lookup: Also Cc1cn2cc(-c3cccc(Cl)c3)nc2s1 ?
Found: 6.2 µg/mL

Lookup: Also Clc1ccccc1-c1cn2ccsc2n1 ?
Found: 23.5 µg/mL

Lookup: Also Cc1c(-c2ccccc2Br)nc2sccn12 ?
Found: > 29.3 µg/mL

Lookup: Also Cc1cn2cc(-c3ccccc3F)nc2s1 ?
Found: 11.6 µg/mL

Lookup: Also Brc1cccc(-c2cn3ccsc3n2)c1 ?
Found: 14 µg/mL

----------
System: C. elegans
Assay Explanation: C. elegans dose-response (viability, minimum lethal concentration)
Type: in vivo, Caenorhabditis elegans
Test Parameters: Caenorhabditis elegans, 72 h; L1 worms, 3 days at 20° C.; same values in ppm; read-out: Minimum Lethal Concentration (ppm)
Assay Endpoint: minimal effective concentration (µg/mL)
Hi! Could you send only the number? It should be in µg/mL, unit omitted.

Example results:
Lookup: Could you share which minimal effective concentration value was measured for Clc1ccc(-c2cn3ccoc3n2)cc1 [I-47, 6-(4-chlorophenyl)imidazo[2,1-b]oxazole] ?
Found: 10.9

Lookup: Also Cc1c(-c2cccc(Br)c2)nc2sccn12 ?
Found: 14.7

Continuing:
Lookup: Could you share which minimal effective concentration value was measured for Clc1cccc(-c2cn3ccsc3n2)c1 ?
Found: 23.5
